# measured on: Vesicular acetylcholine transporter (Torpedo californica)
# Sequence (P81721 whole entry): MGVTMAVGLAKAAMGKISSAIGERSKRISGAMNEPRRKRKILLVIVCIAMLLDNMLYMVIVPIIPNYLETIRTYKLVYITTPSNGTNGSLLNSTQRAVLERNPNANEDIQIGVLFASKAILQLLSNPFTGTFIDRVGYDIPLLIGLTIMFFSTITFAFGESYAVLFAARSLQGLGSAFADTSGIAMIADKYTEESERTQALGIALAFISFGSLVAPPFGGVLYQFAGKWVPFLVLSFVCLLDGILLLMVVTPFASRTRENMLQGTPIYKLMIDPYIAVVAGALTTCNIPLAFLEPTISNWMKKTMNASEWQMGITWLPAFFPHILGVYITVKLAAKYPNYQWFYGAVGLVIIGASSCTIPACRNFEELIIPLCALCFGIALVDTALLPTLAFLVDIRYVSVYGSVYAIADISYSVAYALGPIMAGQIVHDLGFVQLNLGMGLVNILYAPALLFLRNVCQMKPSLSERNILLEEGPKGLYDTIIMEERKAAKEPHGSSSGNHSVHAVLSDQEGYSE
pIC50: −log10 of the molar value.
Is pIC50 at least 6? Then YES. If not, NO.

Study these solved cases before continuing.
• OC(Cc1cccc(I)c1)CN1CCC(c2ccccc2)CC1 (stereo not given) = YES
• Oc1cccc(CC(O)CN2CCC(c3ccccc3)CC2)c1 (stereo not given) = YES
• OC(Cc1ccc(Br)cc1)CN1CCN(c2ccccc2)CC1 (stereo not given) = NO

// switching to the query compound
Request: Check this compound for pIC50 at or above 6: COc1cccc(CC(O)CN2CCC(c3ccccc3)CC2)c1 (stereo not given)
Response: YES

Reference source for all entries: ChEMBL document CHEMBL1125810
